Target: Human eIF4E (Homo sapiens)
Construct: Human eIF4E (aa 28-217) with a C-terminal His-tag; made in house
Sequence (P06730 28-217): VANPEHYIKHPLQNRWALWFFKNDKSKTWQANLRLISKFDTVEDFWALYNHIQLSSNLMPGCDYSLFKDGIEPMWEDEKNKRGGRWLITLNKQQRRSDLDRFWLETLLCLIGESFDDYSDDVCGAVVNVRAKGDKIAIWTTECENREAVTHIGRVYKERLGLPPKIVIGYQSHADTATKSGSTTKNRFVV
Assay: Human eIF4E/4G2 binding assay (TR-FRET)
Conditions: eIF4E (aa 28-217) with biotin labeled 4G2 peptide
pIC50: −log10 of the molar value.
parameter: pIC50

Request: # get_value(readout='pIC50', item= `O=C(O)C1CN(c2nc(-c3ccc(-c4ccc(F)cc4)cc3)c(-c3cncnc3)s2)C1` )
Response: < 4.60

Request: # get_value(readout='pIC50', item= `O=C(O)C1CN(c2nc(-c3ccc(Oc4ccccc4)cc3)c(-c3cccc4[nH]ccc34)s2)C1` )
Response: 4.60 to 5.30

Request: # get_value(readout='pIC50', item= `O=C(O)C1CCN(c2nc(-c3ccc(Oc4ccccc4)cc3)c(-c3cccnc3)s2)CC1` )
Response: < 4.60

Request: # get_value(readout='pIC50', item= `CC(C)(CNc1nc(-c2ccc(-c3ccc(F)cc3)cc2)c(Br)s1)C(=O)O` )
Response: 4.60 to 5.30

Request: # get_value(readout='pIC50', item= O=C(O)C1CCCN(c2nc(-c3ccc(-c4ccc(F)cc4)cc3)c(-c3cccnc3)s2)C1 (stereo not shown) )
Response: 4.60 to 5.30
